molecular target: T1, MET Proto-Oncogene, Receptor Tyrosine Kinase (MET), on cells (human, UniProt P08581 25-1390); experiment: flow cytometry titration on HUVEC cells (8k/cell), pH 7.4; printed as Affinity at pH 7.4
T1 construct: also called cMET; c-Met
T1 sequence (P08581 25-1390): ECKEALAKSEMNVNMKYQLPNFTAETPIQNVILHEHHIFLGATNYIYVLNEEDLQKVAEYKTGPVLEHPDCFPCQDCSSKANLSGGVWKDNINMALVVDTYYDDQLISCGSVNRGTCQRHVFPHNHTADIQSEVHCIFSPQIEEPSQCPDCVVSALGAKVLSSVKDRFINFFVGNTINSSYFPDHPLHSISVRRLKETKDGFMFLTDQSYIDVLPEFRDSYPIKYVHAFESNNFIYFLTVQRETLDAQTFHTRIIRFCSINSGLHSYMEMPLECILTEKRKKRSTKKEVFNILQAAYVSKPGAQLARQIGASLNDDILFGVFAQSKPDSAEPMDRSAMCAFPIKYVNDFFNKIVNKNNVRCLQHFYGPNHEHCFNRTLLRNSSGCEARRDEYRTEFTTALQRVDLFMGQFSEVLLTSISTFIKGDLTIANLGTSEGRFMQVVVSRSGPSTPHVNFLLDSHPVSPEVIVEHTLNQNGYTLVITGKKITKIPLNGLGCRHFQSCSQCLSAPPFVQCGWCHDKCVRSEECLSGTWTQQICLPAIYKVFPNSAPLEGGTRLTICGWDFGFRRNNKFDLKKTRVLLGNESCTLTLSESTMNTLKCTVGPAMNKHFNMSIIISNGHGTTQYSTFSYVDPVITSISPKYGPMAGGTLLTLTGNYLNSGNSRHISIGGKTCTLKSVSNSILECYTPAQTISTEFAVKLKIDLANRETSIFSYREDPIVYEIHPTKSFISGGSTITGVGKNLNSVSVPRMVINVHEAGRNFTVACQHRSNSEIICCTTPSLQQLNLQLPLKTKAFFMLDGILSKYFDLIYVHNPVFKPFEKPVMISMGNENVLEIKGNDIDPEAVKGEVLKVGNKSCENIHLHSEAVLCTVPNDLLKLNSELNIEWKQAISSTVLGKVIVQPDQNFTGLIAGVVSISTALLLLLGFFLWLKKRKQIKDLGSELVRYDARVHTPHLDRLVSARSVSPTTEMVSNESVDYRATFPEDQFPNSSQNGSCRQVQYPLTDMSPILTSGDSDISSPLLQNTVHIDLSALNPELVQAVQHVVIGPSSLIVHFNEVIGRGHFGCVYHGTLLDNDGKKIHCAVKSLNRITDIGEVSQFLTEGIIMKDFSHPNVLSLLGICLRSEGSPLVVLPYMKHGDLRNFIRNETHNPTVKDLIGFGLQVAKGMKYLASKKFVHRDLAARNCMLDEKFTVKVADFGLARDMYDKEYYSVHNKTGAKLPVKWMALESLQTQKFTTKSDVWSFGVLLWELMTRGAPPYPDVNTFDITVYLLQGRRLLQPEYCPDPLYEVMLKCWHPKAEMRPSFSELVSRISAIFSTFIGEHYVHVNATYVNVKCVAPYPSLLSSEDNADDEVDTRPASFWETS
pKd: −log10 of the molar value.

{"Binder": "MYT4305 (P3D12) (antibody, V domains shown, Human IgG1; also called P3D12 anti-cMET) VH: QVQLVQSGAEVKKPGASVKVSCKASGYTFTSYWMHWVKQAPGQGLDWIGYIKPSTDNTEYNQKFKDKATLTADKSTSTAYMELSSLRSEDTAVYYCARSYGNYPLMDYWGQGTTVTVSS VL: QIVLTQSPAILSLSPGERATLSCSASSSVTSNYLYWYQQKPGSSPKLLIYSTSNLASGVPARFSGSGSGTSYTLTISSLEAEDAASYFCHQWSSYPPTFGSGTKLEIK", "pKd": 9.70}
